# targetDesc: CTLA-4 (Homo sapiens (Human)) (UniProt P16410)
# Sequence (P16410 36-223): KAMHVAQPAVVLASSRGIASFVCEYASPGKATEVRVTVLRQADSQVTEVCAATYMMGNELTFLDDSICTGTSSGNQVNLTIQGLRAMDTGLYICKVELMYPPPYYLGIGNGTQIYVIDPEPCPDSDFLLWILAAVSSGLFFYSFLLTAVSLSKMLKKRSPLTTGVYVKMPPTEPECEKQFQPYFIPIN
# protocolNotes: flow cytometry, transfected cells

{"binder": "ICOSL-Fc N52S/N57L/Q100S (Fc fusion) DTQEKEVRAMVGSDVELSCACPEGSRFDLNDVYVYWQTSESKTVVTYHIPQSSSLELVDSRYRNRALMSPAGMLRGDFSLRLFNVTPQDEQKFHCLVLSSSLGFQEVLSVEVTLHVAANFSVPVVSAPHSPSQDELTFTCTSINGYPRPNVYWINKTDNSLLDQALQNDTVFLNMRGLYDVVSVLRIARTPSVNIGCCIENVLLQQNLTVGSQTGNDIGERDKITENPVSTGEKNAAT", "MFI (MFI)": 197000}
{"binder": "ICOSL-Fc N52Q/N57F (Fc fusion) DTQEKEVRAMVGSDVELSCACPEGSRFDLNDVYVYWQTSESKTVVTYHIPQQSSLEFVDSRYRNRALMSPAGMLRGDFSLRLFNVTPQDEQKFHCLVLSQSLGFQEVLSVEVTLHVAANFSVPVVSAPHSPSQDELTFTCTSINGYPRPNVYWINKTDNSLLDQALQNDTVFLNMRGLYDVVSVLRIARTPSVNIGCCIENVLLQQNLTVGSQTGNDIGERDKITENPVSTGEKNAAT", "MFI (MFI)": 367000}
{"binder": "ICOSL-Fc N52S/N57M/Q100S (Fc fusion) DTQEKEVRAMVGSDVELSCACPEGSRFDLNDVYVYWQTSESKTVVTYHIPQSSSLEMVDSRYRNRALMSPAGMLRGDFSLRLFNVTPQDEQKFHCLVLSSSLGFQEVLSVEVTLHVAANFSVPVVSAPHSPSQDELTFTCTSINGYPRPNVYWINKTDNSLLDQALQNDTVFLNMRGLYDVVSVLRIARTPSVNIGCCIENVLLQQNLTVGSQTGNDIGERDKITENPVSTGEKNAAT", "MFI (MFI)": 228000}

Attribution: patent US20250163127A1
